- Tested on: U937 cells (human monocytic cell line)
- experiment-description: Pam2CSK4-induced TNF-α secretion inhibition in PMA-differentiated U937 cells
- Format: cell-based
- measurement-conditions: U-937, U937 cells differentiated with PMA, read-out: TNF-α production inhibition grade (IC50)
pIC50: −log10 of the molar value.
assay-endpoint: pIC50

Reference set, count: 5
C[C@H](CCC(=O)N[C@@H](Cc1ccccc1)CS(=O)(=O)O)[C@H]1CC[C@H]2[C@@H]3CC[C@@H]4C[C@H](O)CC[C@]4(C)[C@H]3CC[C@]12C [NC10065]
5.70 to 6.00
C[C@H](CCC(=O)N[C@H](Cc1ccccc1)CS(=O)(=O)O)[C@H]1CC[C@H]2[C@@H]3CC[C@@H]4C[C@H](O)CC[C@]4(C)[C@H]3CC[C@]12C [NC10066]
5.70 to 6.00
CC[C@H]1[C@@H](O)[C@@H]2[C@H](CC[C@]3(C)[C@@H]([C@H](C)CCC(=O)N4CC[C@H](S(=O)(=O)O)C4)CC[C@@H]23)[C@@]2(C)CC[C@@H](O)C[C@@H]12 [NC40033]
> 6.30
CC[C@H]1[C@@H](O)[C@@H]2[C@H](C[C@H](O)[C@]3(C)[C@@H]([C@H](C)CCC(=O)N[C@H](CS(=O)(=O)O)C(C)C)CC[C@@H]23)[C@@]2(C)CC[C@@H](O)C[C@@H]12 [NC50016]
6.00 to 6.30
CC[C@H]1[C@@H](O)[C@@H]2[C@H](C[C@H](O)[C@]3(C)[C@@H]([C@H](C)CCC(=O)N[C@H](CS(=O)(=O)O)c4ccccc4)CC[C@@H]23)[C@@]2(C)CC[C@@H](O)C[C@@H]12 [NC50018]
≤ 5.70

What value of pIC50 has been recorded for this entry: C[C@H](CCC(=O)N[C@H](c1ccccc1)[C@H](C)S(=O)(=O)O)[C@H]1CC[C@H]2[C@@H]3CC[C@@H]4C[C@H](O)CC[C@]4(C)[C@H]3CC[C@]12C [NC10070]
> 6.30

Then this compound: CC(C)[C@H](CS(=O)(=O)O)NC(=O)CC[C@@H](C)[C@H]1CC[C@H]2[C@@H]3[C@H](O)C[C@@H]4C[C@H](O)CC[C@]4(C)[C@H]3C[C@H](O)[C@]12C [NC20017]
> 6.30

Then this compound: C[C@H](CCC(=O)NCCOS(=O)(=O)O)[C@H]1CC[C@H]2[C@@H]3CC[C@@H]4C[C@H](O)CC[C@]4(C)[C@H]3C[C@H](O)[C@]12C [NC10007]
≤ 5.70

Then this compound: CC(C)[C@H](CS(=O)(=O)O)NC(=O)CC[C@@H](C)[C@H]1CC[C@H]2[C@@H]3CC[C@@H]4C[C@H](O)CC[C@]4(C)[C@H]3C[C@H](O)[C@]12C [NC10033]
6.00 to 6.30
